// merged dataset of IC50 values, system = Lysine-specific demethylase 4C (Homo sapiens, UniProt Q9H3R0), multiple refs
valueKind: IC50

{"columns": ["compoundString", "valueKind", "experimentalResult"],
 "data": [
  ["O=C(O)c1ccnc(-n2nccc2OCc2ccc(Cl)c(C(F)(F)F)c2)c1", "IC50", "100 to 1000 nM"],
  ["CCS(=O)(=O)N1CC[C@H](n2cc(Oc3nc(O)c4ccncc4n3)cn2)C1", "IC50", "≤ 100 nM"],
  ["O=C(O)c1ccncc1NCc1cccc(OCC2CC2)c1", "IC50", "100 to 1000 nM"],
  ["COc1c(F)cc(Oc2nc(O)c3ccncc3n2)cc1F", "IC50", "100 to 1000 nM"],
  ["CN(c1ccc(F)cc1)c1ccc2c(c1)CCC[C@H]2CNc1cnccc1C(=O)O", "IC50", "100 to 1000 nM"],
  ["O=C(O)c1ccnc(-n2nccc2CCc2ccccc2)c1", "IC50", "> 10000 nM"],
  ["Oc1nc(OCCc2ccccc2)nc2cnccc12", "IC50", "100 to 1000 nM"],
  ["O=C(O)c1ccncc1NC[C@H]1CCCc2cc(Sc3ccccc3F)ccc21", "IC50", "1000 to 10000 nM"],
  ["O=C(O)c1ccncc1NCc1ccc(-c2ccccc2)cc1", "IC50", "1000 to 10000 nM"]
]}
